# tested system: NAD-dependent protein deacetylase sirtuin-2 (Homo sapiens)
# Sequence (Q8IXJ6 whole entry): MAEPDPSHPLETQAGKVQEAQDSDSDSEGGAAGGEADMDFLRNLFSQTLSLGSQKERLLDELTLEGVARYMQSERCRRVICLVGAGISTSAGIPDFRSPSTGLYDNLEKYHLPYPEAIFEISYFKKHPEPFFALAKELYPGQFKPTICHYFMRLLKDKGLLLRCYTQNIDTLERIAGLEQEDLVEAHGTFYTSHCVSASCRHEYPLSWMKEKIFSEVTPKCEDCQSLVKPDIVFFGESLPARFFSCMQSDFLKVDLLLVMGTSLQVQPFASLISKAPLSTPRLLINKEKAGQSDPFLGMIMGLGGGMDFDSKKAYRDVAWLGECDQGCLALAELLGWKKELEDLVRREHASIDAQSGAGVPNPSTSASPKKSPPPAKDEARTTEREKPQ
# assay remarks: Inhibition of human SIRT2 using RHKK(Ac)-AMC as substrate preincubated for 10 mins followed by substrate addition by fluorescence assay
reported property: IC50 (nM)
Numbers only here, please. The scale is nM.

Tell me the measured IC50 of COc1ccc2ccccc2c1Cn1cnc2sc3c(c2c1=O)CCC(NCc1cccnc1)C3 (stereo unspecified) , please.
1450
